Test system: HMG-CoA reductase (Rattus norvegicus)
Sequence (P51639 whole entry): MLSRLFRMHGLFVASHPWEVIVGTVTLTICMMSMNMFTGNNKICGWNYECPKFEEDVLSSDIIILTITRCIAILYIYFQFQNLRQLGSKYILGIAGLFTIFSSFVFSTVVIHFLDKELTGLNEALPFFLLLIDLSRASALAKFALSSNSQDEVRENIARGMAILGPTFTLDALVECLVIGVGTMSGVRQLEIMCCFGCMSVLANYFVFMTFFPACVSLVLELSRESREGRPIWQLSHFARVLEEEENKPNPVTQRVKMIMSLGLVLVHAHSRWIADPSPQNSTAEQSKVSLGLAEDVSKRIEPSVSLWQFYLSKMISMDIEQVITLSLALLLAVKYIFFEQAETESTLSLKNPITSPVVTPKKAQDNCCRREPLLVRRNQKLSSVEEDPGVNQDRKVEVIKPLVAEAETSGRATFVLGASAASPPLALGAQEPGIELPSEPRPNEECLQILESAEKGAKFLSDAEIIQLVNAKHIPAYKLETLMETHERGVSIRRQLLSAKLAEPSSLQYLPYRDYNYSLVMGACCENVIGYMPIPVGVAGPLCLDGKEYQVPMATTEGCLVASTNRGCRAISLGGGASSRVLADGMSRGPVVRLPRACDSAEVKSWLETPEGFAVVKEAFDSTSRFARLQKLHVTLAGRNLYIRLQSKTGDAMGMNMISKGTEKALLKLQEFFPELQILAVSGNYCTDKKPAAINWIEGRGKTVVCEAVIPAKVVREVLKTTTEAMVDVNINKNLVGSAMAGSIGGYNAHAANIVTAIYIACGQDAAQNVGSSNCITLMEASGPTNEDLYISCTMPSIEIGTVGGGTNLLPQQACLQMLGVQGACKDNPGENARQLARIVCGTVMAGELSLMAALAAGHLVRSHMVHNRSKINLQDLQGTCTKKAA
Procedure text: intrinsic HMG-CoA reductase inhibition, published in vitro protocol (J. Med. Chem., 28, p. 347-358 (1985))
Format: biochemical
Cond: IC50 of test compound compared with that of compactin (mevastatin) determined simultaneously; compactin assigned a value of 100
Relative Potency (Compactin = 100) reference

{"Mol smiles": "CCC(C)(C)C(=O)O[C@@H]1[C@H]2C(=C[C@H](C)[C@H]1[C@@H](C)O)C=C[C@H](C)[C@@H]2CC[C@@H]1C[C@@H](O)CC(=O)O1", "Relative Potency (Compactin = 100)": 124}
{"Mol smiles": "CCC(C)(C)C(=O)O[C@@H]1[C@H]2C(=C[C@H](C)[C@H]1[C@H](O)c1ccccc1)C=C[C@H](C)[C@@H]2CC[C@@H]1C[C@@H](O)CC(=O)O1", "Relative Potency (Compactin = 100)": 137}
{"Mol smiles": "CCC(C)(C)C(=O)O[C@H]1[C@H](CO)[C@@H](C)C=C2C=C[C@H](C)[C@H](CC[C@@H]3C[C@@H](O)CC(=O)O3)[C@H]21", "Relative Potency (Compactin = 100)": 262}
{"Mol smiles": "CCC(C)(C)C(=O)O[C@@H]1[C@H]2C(=C[C@H](C)[C@H]1[C@H](C)O)C=C[C@H](C)[C@@H]2CC[C@@H]1C[C@@H](O)CC(=O)O1", "Relative Potency (Compactin = 100)": 350}
{"Mol smiles": "CCC(C)(C)C(=O)O[C@H]1[C@H](C)[C@@H](C)C=C2C=C[C@H](C)[C@H](CC[C@@H]3C[C@@H](O)CC(=O)O3)[C@H]21", "Relative Potency (Compactin = 100)": 174}
{"Mol smiles": "CCC(C)(C)C(=O)O[C@H]1[C@@H](O)[C@@H](C)C=C2C=C[C@H](C)[C@H](CC[C@@H]3C[C@@H](O)CC(=O)O3)[C@H]21", "Relative Potency (Compactin = 100)": 214}
